Assay: gradient 5% acetonitrile 3 min, to 50% in 2 min, to 85% in 15 min, held 3 min, 100 µL/min
Settings: column: Zorbax Extend-C18 2.1 x 50 mm; eluents: water / acetonitrile, 0.1% formic acid
// classify: if (RP-LC retention time < 700 s) True else False

CCCC(C)NC(=O)c1ccc2c(c1)CCCN2S(C)(=O)=O (stereo not given)    False
COc1ccc(C[C@H](C)NC[C@@H](O)c2ccc(O)c(NC=O)c2)cc1    True
CCOc1ccc(-c2nnc3ccc(SC(C(C)=O)C(=O)N(C)C)nn23)cc1 (stereo not given)    True
O=C(Cc1ccccc1Cl)N1CCN(c2nc(CN3CCOCC3)cs2)CC1    True
COc1nc2ccccc2nc1N1CCCC(C(=O)N2CCCC2)C1 (stereo not given)    False

[Q] API: query returns whether the compound falls strictly under 700 s in RP-LC retention time. Query: O=C(Nc1ccccc1)N1CCC(OCc2ccccc2)C1 (stereo not given)
[A] False

[Q] hey, is RP-LC retention time for O=C(Cn1cccc1-c1nc(-c2ccc3c(c2)OCO3)no1)Nc1ccc(Cl)cc1F lower than 700 s or not?
[A] False

[Q] # TODO verify RP-LC retention time < 700 s strictly for this compound: O=C(CC1CCN(C(=O)Nc2ccccc2Cl)CC1)N1CCCCC1
[A] False

[Q] Please determine if Cn1c(C2CCN(C(=O)c3cc4c(s3)CCCC4)C2)nc2cccnc21 (stereo not given) is below 700 s in terms of RP-LC retention time.
[A] False

[Q] Is the reported RP-LC retention time for CCN1CCN(c2cc(C)c3cc(NC(=O)CC4CCCCC4)ccc3n2)CC1 strictly below 700 s?
[A] True

These entries and their values trace back to the METLIN SMRT retention time set (Domingo-Almenara et al. 2019).
